System: KB
Assay: Cytotoxicity against human KB cells assessed as inhibition of cell growth after 3 days by MTT assay
Type: functional, cell-based
Details: 72 h
IC50 strictly less than 20 nM = 1. Otherwise -1.

>>> label_value("CC(=O)N/C(=C\\c1ccoc1)C(=O)N[C@H](C(=O)N[C@H](/C=C(\\C)C(=O)O)C(C)C)C(C)(C)C")
-1

Query string: Lab note: IC50 threshold 20 nM. Does this compound come in strictly under it? "CCOC(=O)/C(C)=C/[C@H](C(C)C)N(C)C(=O)[C@@H](NC(=O)/C(=C/c1ccoc1)NC(C)=O)C(C)(C)C"
Result string: -1

Query string: Lab note: IC50 threshold 20 nM. Does this compound come in strictly under it? "COc1ccc(/C=C(\NC(C)=O)C(=O)N[C@H](C(=O)N(C)[C@H](/C=C(\C)C(=O)O)C(C)C)C(C)(C)C)cc1"
Result string: 1

Query string: Lab note: IC50 threshold 20 nM. Does this compound come in strictly under it? "COc1ccc(/C=C(\NC(C)=O)C(=O)N[C@H](C(=O)N[C@H](/C=C(\C)C(=O)O)C(C)C)C(C)(C)C)cc1"
Result string: -1

Query string: Lab note: IC50 threshold 20 nM. Does this compound come in strictly under it? "CCOC(=O)/C(C)=C/[C@H](C(C)C)N(C)C(=O)[C@@H](NC(=O)/C(=C/c1ccco1)NC(C)=O)C(C)(C)C"
Result string: 1

Query string: Lab note: IC50 threshold 20 nM. Does this compound come in strictly under it? "COc1cccc(/C=C(\NC(C)=O)C(=O)N[C@H](C(=O)N(C)[C@H](/C=C(\C)C(=O)O)C(C)C)C(C)(C)C)c1"
Result string: -1

Query string: Lab note: IC50 threshold 20 nM. Does this compound come in strictly under it? "CCOC(=O)/C(C)=C/[C@@H](NC(=O)[C@@H](NC(=O)/C(=C/c1ccc2ccccc2c1)NC(C)=O)C(C)(C)C)C(C)C"
Result string: -1

====

System: KB
Assay: Cytotoxicity against human KB cells assessed as inhibition of cell growth after 3 days by MTT assay
Type: functional, cell-based
Conditions: 72 h
pIC50: −log10 of the molar value.
readout: pIC50

Entry under test: "CC(=O)N/C(=C\c1cccc(Br)c1)C(=O)N[C@H](C(=O)N[C@H](/C=C(\C)C(=O)O)C(C)C)C(C)(C)C" . Its pIC50 was < 6.57

Entry under test: "CCOC(=O)/C(C)=C/[C@H](C(C)C)N(C)C(=O)[C@@H](NC(=O)/C(=C/c1ccsc1)NC(C)=O)C(C)(C)C" . Its pIC50 was 6.69

Entry under test: "CC(=O)N/C(=C\c1ccoc1)C(=O)N[C@H](C(=O)N(C)[C@H](/C=C(\C)C(=O)O)C(C)C)C(C)(C)C" . Its pIC50 was < 6.57

====

Test system: KB
Test: Cytotoxicity against human KB cells assessed as inhibition of cell growth after 3 days by MTT assay
Type: functional, cell-based
Settings: 72 h
IC50 strictly less than 80 nM = y. Otherwise n.

Use the examples below as a reference point.
>>> label_value("COc1cccc(/C=C(\\NC(C)=O)C(=O)N[C@H](C(=O)N[C@H](/C=C(\\C)C(=O)O)C(C)C)C(C)(C)C)c1")
"n"
>>> label_value("CC(=O)N/C(=C\\c1ccc2ccccc2c1)C(=O)N[C@H](C(=O)N(C)[C@H](/C=C(\\C)C(=O)O)C(C)C)C(C)(C)C")
"y"

Query string: Lab note: IC50 threshold 80 nM. Does this molecule come in strictly under it? "CCOC(=O)/C(C)=C/[C@H](C(C)C)N(C)C(=O)[C@@H](NC(=O)/C(=C/c1ccc(Br)cc1)NC(C)=O)C(C)(C)C"
Result string: y

Query string: Lab note: IC50 threshold 80 nM. Does this molecule come in strictly under it? "Cc1c2ccncc2c(C)c2c1[nH]c1ccccc12"
Result string: y

Query string: Lab note: IC50 threshold 80 nM. Does this molecule come in strictly under it? "CC(=O)N/C(=C\c1ccco1)C(=O)N[C@H](C(=O)N[C@H](/C=C(\C)C(=O)O)C(C)C)C(C)(C)C"
Result string: y

Query string: Lab note: IC50 threshold 80 nM. Does this molecule come in strictly under it? "CC(=O)N/C(=C\c1ccc2ccccc2c1)C(=O)N[C@H](C(=O)N[C@H](/C=C(\C)C(=O)O)C(C)C)C(C)(C)C"
Result string: y

Query string: Lab note: IC50 threshold 80 nM. Does this molecule come in strictly under it? "CC(=O)N/C(=C\c1ccsc1)C(=O)N[C@H](C(=O)N[C@H](/C=C(\C)C(=O)O)C(C)C)C(C)(C)C"
Result string: n
